Entry source: patent US9024044B2

# measured_target: recombinant human enteropeptidase (Homo sapiens (Human))
# Sequence (P98073 whole entry): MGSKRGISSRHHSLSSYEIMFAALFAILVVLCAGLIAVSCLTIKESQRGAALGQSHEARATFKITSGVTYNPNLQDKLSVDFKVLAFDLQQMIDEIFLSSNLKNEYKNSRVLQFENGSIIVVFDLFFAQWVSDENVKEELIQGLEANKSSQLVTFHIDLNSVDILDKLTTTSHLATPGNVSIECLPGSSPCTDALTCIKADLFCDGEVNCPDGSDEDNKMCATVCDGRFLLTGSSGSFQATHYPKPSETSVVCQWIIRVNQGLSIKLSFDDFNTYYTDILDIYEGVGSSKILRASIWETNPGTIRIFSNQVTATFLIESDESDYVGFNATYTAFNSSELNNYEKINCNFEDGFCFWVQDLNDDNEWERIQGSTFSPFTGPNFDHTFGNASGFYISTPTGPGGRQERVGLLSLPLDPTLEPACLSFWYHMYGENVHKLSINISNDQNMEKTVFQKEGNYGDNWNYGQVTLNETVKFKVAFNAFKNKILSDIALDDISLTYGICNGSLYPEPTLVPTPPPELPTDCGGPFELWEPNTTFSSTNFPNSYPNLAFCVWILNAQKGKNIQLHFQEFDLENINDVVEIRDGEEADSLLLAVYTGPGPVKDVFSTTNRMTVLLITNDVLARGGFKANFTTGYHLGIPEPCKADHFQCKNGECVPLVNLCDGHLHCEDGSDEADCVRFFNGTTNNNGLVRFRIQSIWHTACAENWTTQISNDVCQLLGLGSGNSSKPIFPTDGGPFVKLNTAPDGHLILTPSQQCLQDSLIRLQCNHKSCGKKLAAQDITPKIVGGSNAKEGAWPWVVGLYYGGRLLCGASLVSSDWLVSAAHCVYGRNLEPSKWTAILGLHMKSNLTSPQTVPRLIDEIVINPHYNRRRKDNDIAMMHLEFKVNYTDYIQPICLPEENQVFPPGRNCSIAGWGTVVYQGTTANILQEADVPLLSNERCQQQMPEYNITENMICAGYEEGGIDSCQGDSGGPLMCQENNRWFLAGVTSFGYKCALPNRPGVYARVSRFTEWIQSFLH
# experimental_details: Measurement of enteropeptidase inhibitory activity
# test_context: substrate Gly-Asp-Asp-Asp-Asp-Lys-β-Naphtylamide, Tris-HCl pH 8.0, Dixon plot
# Protocol: Measurement of Enteropeptidase Inhibitory Activity Using a 96 well plate (#3915, Costar), a test compound (25 μL), 400 mM Tris-HCl buffer (pH 8.0, 25 μL) and 0.5 mg/mL fluorescence enzyme substrate (Gly-Asp-Asp-Asp-Asp-Lys-β-Naphtylamide, 25 μL) were mixed, and recombinant human enteropeptidase (R&D Systems, Inc., 25 μL) was added. […] The Ki value was calculated from the concentration of the test compound, reciprocal of reaction rate, and Km value of the enzyme substrate, and by using Dixon plot.
In plain terms, low Ki, meaning strictly below 0.9 nM, gives 1.0, and everything else gives 0.0.

- record_smiles: "CCC(CC)(Cc1ccc(C(=O)Oc2ccc(C(=N)N)cc2F)s1)C(=O)N[C@@H](CCC(N)=O)C(=O)O"
  category_label: 0.0
- record_smiles: "CC(C)(Cc1ccc(C(=O)Oc2ccc(C(=N)N)cc2F)s1)C(=O)NC(CCC(=O)O)(CCC(=O)O)CCC(=O)O"
  category_label: 1.0
- record_smiles: "CCC(CC)(Cc1ccc(C(=O)Oc2ccc(C(=N)N)cc2F)s1)C(=O)NCC(=O)NCC(=O)O"
  category_label: 1.0
- record_smiles: "CCC(CC)(Cc1ccc(C(=O)Oc2ccc(C(=N)N)cc2F)s1)C(=O)NC1(C(=O)O)CCC1"
  category_label: 0.0
- record_smiles: "CC(C)(Cc1ccc(C(=O)Oc2ccc(C(=N)N)cc2F)s1)C(=O)N(CC(=O)O)CC1CC1"
  category_label: 1.0
- record_smiles: "C=CCN(CCS(=O)(=O)O)C(=O)C(C)(C)Cc1ccc(C(=O)Oc2ccc(C(=N)N)cc2F)s1"
  category_label: 0.0
- record_smiles: "CC[C@H](NC(=O)C(CC)(CC)Cc1ccc(C(=O)Oc2ccc(C(=N)N)cc2F)s1)C(=O)O"
  category_label: 1.0
- record_smiles: "CCC(CC)(Cc1ccc(C(=O)Oc2ccc(C(=N)N)cc2F)s1)C(=O)N[C@H](CO)C(=O)O"
  category_label: 0.0

---

# measured_target: human trypsin (Homo sapiens, UniProt P07477)
pKi: −log10 of the molar value. Where a name gives a salt, the structure may show the parent alone.
Binary call on pKi: label 1 from 9 upward, label 0 beneath that.

- molecule: "CCC(CC)(Cc1ccc(C(=O)Oc2ccc(C(=N)N)cc2F)s1)C(=O)N[C@@H](CCC(N)=O)C(=O)O"
  category_label: "label 0"
- molecule: "CCC(CC)(Cc1ccc(C(=O)Oc2ccc(C(=N)N)cc2F)s1)C(=O)O [Compound 18, trifluoroacetic acid salt]"
  category_label: "label 0"
- molecule: "CCC(CC)(Cc1ccc(C(=O)Oc2ccc(C(=N)N)cc2F)s1)C(=O)Nc1ccc(CC(=O)O)cc1"
  category_label: "label 0"
- molecule: "CC(C)(Cc1ccc(C(=O)Oc2ccc(C(=N)N)cc2F)s1)C(=O)Nc1ccc(C(=O)O)c(C(=O)O)c1"
  category_label: "label 1"
